Target: UniProt:P37231
Sequence (P37231 1-505): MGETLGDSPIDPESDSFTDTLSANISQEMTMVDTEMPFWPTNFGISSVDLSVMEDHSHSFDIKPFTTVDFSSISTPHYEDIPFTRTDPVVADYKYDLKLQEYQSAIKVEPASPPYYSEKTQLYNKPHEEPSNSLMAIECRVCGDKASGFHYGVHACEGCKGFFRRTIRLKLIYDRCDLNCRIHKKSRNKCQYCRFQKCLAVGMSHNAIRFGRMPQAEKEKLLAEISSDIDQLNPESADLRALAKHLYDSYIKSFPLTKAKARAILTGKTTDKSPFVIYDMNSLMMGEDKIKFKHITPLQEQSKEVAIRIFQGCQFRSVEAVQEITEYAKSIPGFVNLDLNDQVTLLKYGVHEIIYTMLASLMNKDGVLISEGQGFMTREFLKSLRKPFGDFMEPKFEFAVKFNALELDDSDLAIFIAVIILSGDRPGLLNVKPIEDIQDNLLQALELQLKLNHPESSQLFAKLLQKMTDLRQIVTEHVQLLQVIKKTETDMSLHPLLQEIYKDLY
Test: PPAR-gamma transactivation assay (GAL4 chimera, luciferase reporter) in CV-1 cells
Conditions: GAL4-PPAR LBD chimera
pEC50: −log10 of the molar value.
Property: pEC50

>  <Compound>
CCC1CN(c2ccc(OC(F)(F)F)cc2)CCN1S(=O)(=O)c1ccc2c(c1)C(C(=O)O)CC2 (stereo not shown)

>  <Measured target>
UniProt:P37231

>  <Experimental value>
> 5.30

$$$$
>  <Compound>
CCC1CN(c2ccc(C(F)(F)F)c(Cl)c2)CCN1S(=O)(=O)c1ccc2c(c1)C(C(=O)O)CC2 (stereo not shown)

>  <Measured target>
UniProt:P37231

>  <Experimental value>
> 5.30

$$$$
>  <Compound>
O=C(O)C1Cc2cccc(S(=O)(=O)N3CCN(Cc4ccc(C(F)(F)F)cc4)CC3)c2C1 (stereo not shown)

>  <Measured target>
UniProt:P37231

>  <Experimental value>
4.00 to 5.30

$$$$
>  <Compound>
O=C(O)C1Cc2cccc(S(=O)(=O)N3CCN(c4cccc(OC(F)(F)F)c4)CC3)c2C1 (stereo not shown)

>  <Measured target>
UniProt:P37231

>  <Experimental value>
4.00 to 5.30

$$$$
